Experimental details: folding stability dG unfold (combined trypsin and chymotrypsin); higher = more stable

Sequence input: SAGGSIKIDEIEPDPPGDRVKVKMDIPVPMYDPNGKPKEPMPIKITAEARVDPENGELAINMDIEMSAGGSA [r2_220_TrROS]
Unit string: kcal/mol
folding stability dG unfold: 1.67
--
Sequence input: SSPLINILTVEVTAETPSGGSFSKTFTFPASKYTEEEIREKIKEEYPDLTDIKITPKVTKIPPGPKILLASA [r9_841_JUSTAS]
Unit string: kcal/mol
folding stability dG unfold: 1.76
--
Sequence input: SAGGSAGGSAGGGKTVVYRFPASLTPEQAVDEITAKVPPNYPVIVEYHPESGTFVAYVPSAGGSAGGSAGGS [r10_163_TrMRF]
Unit string: kcal/mol
folding stability dG unfold: 0.666
--
Sequence input: SAGGSAGGSAMKLEVFPVPDGQIAVFEDADGNIRVIGVPEPNLSISDIAKIALDLGADSVELSAGGSAGGSA [r18_83_TrMRF]
Unit string: kcal/mol
folding stability dG unfold: 0.155
--
Sequence input: SAGGPKKRKWVTFTIDIYIPTPPGQSIEDEARKLAENLGIEITDVEVEPHPNGMVKIDVTVTIWIPYSAGGS [r8_292_TrROS]
Unit string: kcal/mol
folding stability dG unfold: 3.91
--
Sequence input: SAGGSAGGSAGGTLEAIKELAKDMPPGDKNIPIKIPDGKPYTIDVEMDPDGKMEIDIEPSAGGSAGGSAGGS [r10_1017_TrROS]
Unit string: kcal/mol
folding stability dG unfold: 0.466
--
Sequence input: SAGGSAGGSAGSGTMFDFGSASVETLEEDPNGRVLVKVTLPDSEYLLEIVKGELVKIEPRSAGGSAGGSAGG [r17_396_JUSTAS]
Unit string: kcal/mol
folding stability dG unfold: 0.569

meta.source: the supplement of paper PMC12764529
